- System Name: UniProtKB P08238
- Sequence (P08238 whole entry): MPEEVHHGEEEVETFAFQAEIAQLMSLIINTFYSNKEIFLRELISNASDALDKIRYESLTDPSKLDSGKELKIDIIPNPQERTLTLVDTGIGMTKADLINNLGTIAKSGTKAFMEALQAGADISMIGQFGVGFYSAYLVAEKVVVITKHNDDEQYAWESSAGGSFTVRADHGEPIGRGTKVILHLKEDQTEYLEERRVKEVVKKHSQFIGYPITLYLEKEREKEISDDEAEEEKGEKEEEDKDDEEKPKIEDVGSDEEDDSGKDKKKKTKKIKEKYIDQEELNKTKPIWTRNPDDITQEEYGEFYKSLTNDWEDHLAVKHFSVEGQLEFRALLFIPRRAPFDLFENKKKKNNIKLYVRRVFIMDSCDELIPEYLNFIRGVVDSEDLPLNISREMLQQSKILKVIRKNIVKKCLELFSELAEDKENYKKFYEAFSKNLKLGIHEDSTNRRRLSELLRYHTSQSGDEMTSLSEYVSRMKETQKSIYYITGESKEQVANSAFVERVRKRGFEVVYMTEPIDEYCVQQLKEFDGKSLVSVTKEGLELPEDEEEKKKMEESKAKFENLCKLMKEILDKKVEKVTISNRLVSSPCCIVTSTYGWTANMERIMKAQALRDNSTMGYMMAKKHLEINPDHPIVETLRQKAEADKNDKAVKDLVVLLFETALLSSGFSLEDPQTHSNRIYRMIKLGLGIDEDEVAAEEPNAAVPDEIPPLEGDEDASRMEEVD
- Assay Protocol: Fluorescence polarization assay (FITC-GDA tracer displacement)
- Type: binding
- Condition Set: Hsp90β over Hsp90α
Attribute Measured: Selectivity

molecule=CC(C)c1cc(C(=O)N2Cc3ccccc3C2)c(O)c2nc[nH]c12 system_name="UniProtKB P08238" measured_result=1.6
molecule=CC(C)c1cc(C(=O)N2Cc3ccccc3C2)c(O)c2cn[nH]c12 system_name="UniProtKB P08238" measured_result=22
molecule=CCN1Cc2c(C(C)C)cc(C(=O)N3Cc4ccccc4C3)c(O)c2C1=O system_name="UniProtKB P08238" measured_result=≥19
molecule=CC(C)c1cc(C(=O)N2Cc3ccccc3C2)c(O)c2c1CCC2=O system_name="UniProtKB P08238" measured_result=85
molecule="CCCC1Cc2c(C(C)C)cc(C(=O)N3Cc4ccccc4C3)c(O)c2C1=O (stereo not drawn)" system_name="UniProtKB P08238" measured_result=≥37
molecule="CC(C)c1cc(C(=O)N2Cc3ccccc3C2)c(O)c2c1C1C=NNC1O2 (stereo not drawn)" system_name="UniProtKB P08238" measured_result=≥14
molecule="CC1Cc2c(C(C)C)cc(C(=O)N3Cc4ccccc4C3)c(O)c2C1=O (stereo not drawn)" system_name="UniProtKB P08238" measured_result=≥34
molecule=CC(C)c1cc(C(=O)N2Cc3ccccc3C2)c(O)c2c1CNC2=O system_name="UniProtKB P08238" measured_result=≥30
molecule="CCC1Cc2c(C(C)C)cc(C(=O)N3Cc4ccccc4C3)c(O)c2C1=O (stereo not drawn)" system_name="UniProtKB P08238" measured_result=≥17
